Would you kindly list EC50 for each of these molecules?
# SYSTEM: pFGFR4 in Huh7 cells (Homo sapiens (Human))
# MEASUREMENT NOTES: FGFR4 signaling, Meso Scale assay (MSD), Method B, Huh7

Problem: Given the entry C=CC(=O)Nc1ccccc1Nc1ncc2c(n1)N(C1CCCNC1)C(=O)N(c1cc(OC)cc(OC)c1)C2 (centres unmarked) [Compound I-43] , report its measured EC50.
Solution: > 1000 nM

Problem: Given the entry C=CC(=O)Nc1ccccc1Nc1ncc2c(n1)N(CC(F)F)C(=O)N(c1c(F)c(OC)cc(OC)c1F)C2 [Compound I-116] , report its measured EC50.
Solution: < 100 nM

Problem: Given the entry C=CC(=O)N[C@H]1COCC[C@H]1Nc1ncc2c(n1)N(C)C(=O)N(c1c(Cl)c(OC)cc(OC)c1Cl)C2 [Compound I-140] , report its measured EC50.
Solution: 101 to 500 nM

Problem: Given the entry C=CC(=O)Nc1cc(C)ccc1Nc1ncc2c(n1)N(C)C(=O)N(c1cc(OC)cc(OC)c1)C2 [Compound I-41] , report its measured EC50.
Solution: 101 to 500 nM

Problem: Given the entry C=CC(=O)NC1COCC1Nc1ncc2c(n1)N(C)C(=O)N(c1ccc(OC)cc1)C2 (centres unmarked) [Compound I-209] , report its measured EC50.
Solution: > 1000 nM

----------
# SYSTEM: pFGFR4 in Huh7 cells (Homo sapiens (Human), UniProt P22455)
# Sequence (P22455 22-802): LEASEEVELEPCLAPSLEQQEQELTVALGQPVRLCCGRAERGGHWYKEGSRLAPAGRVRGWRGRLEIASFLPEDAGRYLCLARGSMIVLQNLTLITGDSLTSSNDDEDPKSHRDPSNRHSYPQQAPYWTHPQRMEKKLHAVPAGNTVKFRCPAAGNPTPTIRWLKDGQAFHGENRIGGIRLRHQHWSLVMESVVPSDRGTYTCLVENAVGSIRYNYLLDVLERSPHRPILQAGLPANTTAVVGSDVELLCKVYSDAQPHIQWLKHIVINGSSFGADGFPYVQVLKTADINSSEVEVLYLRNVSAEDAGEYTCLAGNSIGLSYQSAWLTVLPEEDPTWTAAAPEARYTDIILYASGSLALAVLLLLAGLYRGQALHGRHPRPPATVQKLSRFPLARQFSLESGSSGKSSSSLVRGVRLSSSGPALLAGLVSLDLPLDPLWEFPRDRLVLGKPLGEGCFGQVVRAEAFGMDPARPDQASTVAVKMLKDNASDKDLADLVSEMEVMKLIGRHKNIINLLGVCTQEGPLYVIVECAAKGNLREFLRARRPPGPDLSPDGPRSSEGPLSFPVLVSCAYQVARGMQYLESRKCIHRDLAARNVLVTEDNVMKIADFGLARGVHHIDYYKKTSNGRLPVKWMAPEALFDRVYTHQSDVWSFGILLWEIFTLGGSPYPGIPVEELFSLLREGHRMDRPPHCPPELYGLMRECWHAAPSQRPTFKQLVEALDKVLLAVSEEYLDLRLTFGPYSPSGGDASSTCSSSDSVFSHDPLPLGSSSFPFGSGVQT
# MEASUREMENT NOTES: FGFR4 signaling, Meso Scale assay (MSD), Method B, Huh7
MEASUREMENT NAME: EC50

Problem: Given the entry C=CC(=O)Nc1ccccc1Nc1ncc2c(n1)N(C1COC1)C(=O)N(c1cc(OC)cc(OC)c1)C2 [Compound I-88] , report its measured EC50.
Solution: 101 to 500 nM

Problem: Given the entry C=CC(=O)NC1CN(C(C)=O)CC1Nc1ncc2c(n1)N(C)C(=O)N(c1c(Cl)c(OC)cc(OC)c1Cl)C2 (racemic) [Compound I-139] , report its measured EC50.
Solution: 101 to 500 nM

Problem: Given the entry C=CC(=O)NC1COCC1Nc1ncc2c(n1)N(Cc1cn[nH]c1)C(=O)N(c1c(Cl)c(OC)cc(OC)c1Cl)C2 (stereo not shown) [Compound I-214] , report its measured EC50.
Solution: 101 to 500 nM

Problem: Given the entry C=CC(=O)Nc1ccccc1Nc1ncc2c(n1)N(CCF)C(=O)N(c1cc(OC)cc(OC)c1)C2 [Compound I-102] , report its measured EC50.
Solution: < 100 nM

Problem: Given the entry C=CC(=O)Nc1cc(N(C)CCOC)ccc1Nc1ncc2c(n1)N(C)C(=O)N(c1cc(OC)cc(OC)c1)C2 [Compound I-21] , report its measured EC50.
Solution: < 100 nM

Problem: Given the entry C=CC(=O)N[C@H]1CCCC[C@H]1Nc1ncc2cc(-c3c(Cl)c(OC)cc(OC)c3Cl)c(=O)n(C)c2n1 [Compound I-223] , report its measured EC50.
Solution: < 100 nM

Problem: Given the entry C=CC(=O)NC1COCC1Nc1ncc2c(n1)N(C)C(=O)N(c1c(F)c(OC)cc(OC)c1Cl)C2 (stereo not shown) [Compound I-206] , report its measured EC50.
Solution: < 100 nM
